measured-target: Toll-like receptor 2 (Homo sapiens)
Sequence (O60603 whole entry): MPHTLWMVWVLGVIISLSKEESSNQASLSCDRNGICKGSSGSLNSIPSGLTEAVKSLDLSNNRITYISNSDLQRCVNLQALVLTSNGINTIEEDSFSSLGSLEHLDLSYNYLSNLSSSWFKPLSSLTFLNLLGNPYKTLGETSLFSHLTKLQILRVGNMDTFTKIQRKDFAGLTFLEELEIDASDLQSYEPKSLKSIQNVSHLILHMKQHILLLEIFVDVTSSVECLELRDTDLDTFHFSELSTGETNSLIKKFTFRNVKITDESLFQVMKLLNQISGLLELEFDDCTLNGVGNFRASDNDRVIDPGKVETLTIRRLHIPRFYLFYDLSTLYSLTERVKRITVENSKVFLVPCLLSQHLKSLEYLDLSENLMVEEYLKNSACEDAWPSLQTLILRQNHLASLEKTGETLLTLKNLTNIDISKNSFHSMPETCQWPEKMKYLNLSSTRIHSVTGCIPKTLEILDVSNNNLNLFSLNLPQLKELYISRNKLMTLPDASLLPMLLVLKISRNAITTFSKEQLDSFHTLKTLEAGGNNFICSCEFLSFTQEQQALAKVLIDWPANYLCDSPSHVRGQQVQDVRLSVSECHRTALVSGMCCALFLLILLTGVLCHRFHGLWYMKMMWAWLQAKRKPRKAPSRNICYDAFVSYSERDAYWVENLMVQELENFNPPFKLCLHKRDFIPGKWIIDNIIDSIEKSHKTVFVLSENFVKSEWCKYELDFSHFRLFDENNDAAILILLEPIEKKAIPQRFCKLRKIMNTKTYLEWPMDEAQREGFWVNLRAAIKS
assay-name: Agonist activity at TLR2 (unknown origin)
pEC50: −log10 of the molar value.

structure-notation: CCCCCCCCCCCCCCCC(=O)OCCC[C@H](CSC[C@H](N)C(=O)N[C@@H](CO)C(=O)N[C@@H](CCCCN)C(=O)N[C@@H](CCCCN)C(=O)N[C@@H](CCCCN)C(=O)N[C@@H](CCCCN)C(=O)N[C@@H](CO)C(=O)N[C@@H](CC(C)C)C(=O)N[C@H](CN[C@@H](CCSC)C(=O)N[C@@H](Cc1c[nH]c2ccccc12)C(=O)N[C@H](C(=O)N[C@H](C(=O)N[C@@H](CCC(N)=O)C(=O)N[C@H](C(=O)O)C(C)C)[C@@H](C)O)[C@@H](C)CC)CC(C)C)OC(=O)CCCCCCCCCCCCCCC
pEC50: 9.42
